Experiment: chemical genetic growth profiling, strain panel (AID 1159580);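 also: tested at 20 µM; growth read once vehicle control cultures reached saturation at 30 °C; 1 = growth at the plate median or of vehicle wells; lower values mean less growth of the strain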
Details: S. cerevisiae deletion strains, growth OD, locus YDR388W, stronger effect = lower value
The campaign covered roughly 5,500 compounds. About 2,000 (36%) were called active. About 18% were inconclusive and are not listed. The list shows a part of the results.
reported_endpoint: normalized growth
Respond with the number and no other words.

Consider the reported normalized growth for these compounds:
{"columns": ["compound", "numeric_result"],
 "data": [
  ["NC(=NCCC[C@H](N)C(=O)O)NC(CCC(=O)O)C(=O)O (stereo partly specified)", 1.02],
  ["CC(C)NCC(O)c1ccc2ccccc2c1 (stereo unspecified)", 0.994],
  ["CC(C)(C)NCC(O)c1ccccc1Cl (stereo unspecified)", 0.991]
]}

Specify normalized growth for Nc1ncn([C@@H]2O[C@H](CO)[C@@H](O)[C@H]2O)c(=O)n1 and stop.
0.997

Specify normalized growth for NCC(CC(=O)O)c1ccc(Cl)s1 (stereo unspecified) and stop.
0.99

Specify normalized growth for CCC[C@H]1CC2=C(C[C@@H](CC)CC3=C1C(=O)OC3=O)C(=O)OC2=O and stop.
1.02

----------
Recorded measurements of normalized growth, one per entry
Test: chemical genetic growth profiling, strain panel (AID 1159580);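 also: tested at 20 µM; growth read once vehicle control cultures reached saturation at 30 °C; 1 = growth at the plate median or of vehicle wells; lower values mean less growth of the strain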
Settings: S. cerevisiae deletion strains, growth OD, locus YNL071W, strain lat1, stronger effect = lower value
The whole screen tested about 5,500 compounds, of which about 2,000 (36%) were called active. Inconclusive results (about 18%) are left out. This is one part of the list.
Respond with the number and no other words.

Consider the reported normalized growth for these molecules:
{"columns": ["molecule", "normalized growth"],
 "data": [
  ["N[C@@H](Cc1ccc(O)c(O)c1)C(=O)O", 1.02],
  ["Nc1ncn([C@@H]2O[C@H](CO)[C@@H](O)[C@H]2O)c(=O)n1", 1.01],
  ["CC1(C)C(=O)C=C[C@@]2(C)C1=C(O)C(=O)[C@]1(C)C2CC[C@@]2(C)[C@H](c3ccoc3)C[C@H]3O[C@]321 (some centres undefined)", 0.44]
]}

Specify normalized growth for CC(=O)O[C@@H]1C[C@@]2(C)[C@H](c3ccoc3)C[C@H]3O[C@]32[C@]2(C)C(=O)C(O)=C3C(C)(C)C(=O)C=C[C@]3(C)C12 (some centres undefined) and stop.
0.736

----------
Test: chemical genetic growth profiling, strain panel (AID 1159580);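 also: tested at 20 µM; growth read once vehicle control cultures reached saturation at 30 °C; 1 = growth at the plate median or of vehicle wells; lower values mean less growth of the strain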
Conditions: S. cerevisiae deletion strains, growth OD, locus YCL061C, strain MRC1, stronger effect = lower value
Hit rate of the full screen: of about 5,500 compounds, about 2,000 (36%) were called active. Roughly 18% stayed inconclusive and do not appear here. The list shows a part of the results.
Recorded measurements of normalized growth, one per entry
Respond with the number and no other words.

{"columns": ["compound", "normalized growth"],
 "data": [
  ["O=C(O)CF", 1.02],
  ["COc1ccc(OC)c(S(=O)(=O)N2CCc3cc(OC)c(OC)cc3C2C)c1 (stereo not given)", 0.994],
  ["CCCC(C)C1(CC)C(=O)N=C(S)NC1=O (stereo not given)", 1],
  ["O=[N+]([O-])/C=C/c1ccsc1", 0.0534],
  ["CO[C@H]1/C=C/O[C@@]2(C)Oc3c(C)c(O)c4c(O)c(c5c(nc6cc(C)ccn65)c4c3C2=O)NC(=O)/C(C)=C\\C=C\\[C@H](C)[C@H](O)[C@@H](C)C(O)[C@@H](C)[C@H](OC(C)=O)[C@@H]1C (stereo not given in full)", 1.04],
  ["Cc1ccsc1/C=C/C1=NCCCN1C", 0.992]
]}

Specify normalized growth for C=CCC1(C(C)CCC)C(=O)N=C(S)NC1=O (stereo not given) and stop.
0.982

Specify normalized growth for Nc1ncnc2c1ncn2C1C[C@H](O)[C@@H](CO)O1 (stereo not given in full) and stop.
1.02

Specify normalized growth for CCCCC(CC)CN1CN(CC(CC)CCCC)CC(C)(N)C1 (stereo not given) and stop.
0.062

Specify normalized growth for CSc1ccc(/C=C/[N+](=O)[O-])cc1 and stop.
0.0551

Specify normalized growth for Nc1ncnc2c1ncn2[C@@H]1O[C@H](CO)[C@@H](O)[C@H]1O and stop.
0.966

Specify normalized growth for C=C(C)[C@H]1CC=C(C(=O)O)CC1 and stop.
0.944

Specify normalized growth for CO[C@H]1/C=C/O[C@@]2(C)Oc3c(C)c(O)c4c(O)c(c(/C=N/N5CCN(C)CC5)c(O)c4c3C2=O)NC(=O)/C(C)=C\C=C\C(C)[C@H](O)[C@@H](C)[C@@H](O)[C@@H](C)[C@@H](OC(C)=O)[C@@H]1C (stereo not given in full) and stop.
1.02

Specify normalized growth for OC[C@@H]1CCCN2CCCC[C@H]12 and stop.
1.02

Specify normalized growth for CC(=O)NCCCCCC(=O)O and stop.
1
